This collection of values is drawn from the METLIN SMRT retention time set (Domingo-Almenara et al. 2019).

TEST DETAILS: gradient 5% acetonitrile 3 min, to 50% in 2 min, to 85% in 15 min, held 3 min, 100 µL/min
EXPERIMENTAL PARAMETERS: column: Zorbax Extend-C18 2.1 x 50 mm; eluents: water / acetonitrile, 0.1% formic acid
QUANTITY NAME: RP-LC retention time (s)

Solved cases below.
{"columns": ["MOLECULE", "RECORDED NUMBER"],
 "data": [
  ["Cc1nc(-c2ccc(N3CCN(C(=O)c4ccc(F)c(F)c4)CC3)nc2)sc1C", 976],
  ["Cc1ccc(CNC(=O)c2nc3cccnc3n(CC(C)C)c2=O)cc1", 1010]
]}

[A] CC(C)Cn1c(=O)c2cc(C(=O)NCc3cc(F)ccc3F)nn2c2ccccc21
[B] CCc1noc2nc(CCC(=O)NCCCN3CCN(C)CC3)nc(N3CCCCC3)c12
query: So which one has the bigger RP-LC retention time here, A or B ? Respond with the label that goes with your answer.
result: A

[I] Cc1noc2nc(C)n(CC(=O)NCCc3ccccc3)c(=O)c12
[II] CCc1cc(=O)n(CC(=O)N(C)c2cccc(C)c2)c(-c2ccccc2)n1
query: Hey, which is lower on measured RP-LC retention time, I or II ? Respond with the label that goes with your answer.
result: I
(I: 752 s, II: 1110 s)

[A] Cc1cc(-c2nnc(-c3ccc(F)cc3)o2)c(C)n1CC(=O)N1CCCC1
[B] COc1ccc(-c2ncc3c(=O)n(Cc4ccc(Br)cc4F)c(=O)n(C)c3n2)cc1
query: So which one has the bigger RP-LC retention time here, A or B ? Respond with the label that goes with your answer.
result: B
